Where do the numbers come from? From patent US20250019385A1.

Listed next: entries and their corresponding IC50.
system: Ba/F3 cells KRAS G12D; assay: Ba/F3 proliferation assay (KRAS G12D); assay type: cell-based; conditions: Mus musculus, BaF3, 72 h, AlamarBlue viability
The response must be a number in nM with no trailing unit.

Qu. Identify measured IC50 associated with C[C@H](Oc1nc(-c2noc3c2CCC[C@@]32CCCc3sc(N)c(C#N)c32)nc2c1CCO[C@]21CCOC1)[C@@H]1CCCN1C [II-9b]
Ans. 8

Qu. Could you please provide reported IC50 for C[C@H](Oc1nc(-c2noc3c2CCC[C@@]32SCCc3sc(N)c(C#N)c32)nc2c1COC[C@]21CCOC1)[C@@H]1CCCN1C [II-16] ? Thanks!
Ans. 3

Qu. Annotate the compound C[C@H](Oc1nc(-c2onc3c2CCC[C@@]32CCCc3sc(N)c(C#N)c32)nc2c1cnn2[C@@H]1CCOC1)[C@@H]1CCCN1C [I-43] with its measured IC50.
Ans. 49

Qu. Using known records, supply IC50 for C[C@H](Oc1nc(-c2onc3c2CCC[C@@]32CCCc3sc(N)c(C#N)c32)nc2c1[nH]c(=O)n2[C@@H]1CCCOC1)[C@@H]1CCCN1C [I-13]
Ans. 141

Qu. Using known records, supply IC50 for CO[C@H]1C[C@@H]([C@H](C)Oc2nc(-c3onc4c3CCC[C@@]43CCCc4sc(N)c(C#N)c43)nc3c2n(C)c(=O)n3[C@@H]2CCOC2)N(C)C1 [I-2]
Ans. 90

Qu. Annotate the compound COCCn1c(=O)n([C@@H]2CCOC2)c2nc(-c3onc4c3CCC[C@@]43CCCc4sc(N)c(C#N)c43)nc(O[C@@H](C)[C@@H]3CCCN3C)c21 [I-1] with its measured IC50.
Ans. 36
